// values below are reported inhibition at 10 µM
- testTarget: recombinant human mPGES-1 (Homo sapiens)
- Construct: made in house; host or cells: Rosetta E. coli (microsomal/membrane fraction)
- Sequence (O14684 whole entry): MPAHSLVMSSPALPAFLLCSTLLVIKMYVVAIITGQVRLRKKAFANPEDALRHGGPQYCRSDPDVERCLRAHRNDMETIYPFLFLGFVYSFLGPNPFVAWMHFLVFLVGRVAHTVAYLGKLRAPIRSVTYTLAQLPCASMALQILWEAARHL
- assayProtocol: mPGES-1 inhibition test (microsomes, PGH2 substrate, HTRF detection of PGE2)
- Assay type: biochemical
- conditionsUsed: inhibition of mPGES-1 at 10 μM
Give the quantity in %, number only.

Dear colleague, please send me the reported inhibition at 10 µM for CCCC[C@@H](C)NC(=O)c1cc2nc(Nc3c(Cl)cccc3Cl)n(C)c2cc1F when you can.
100

Dear colleague, please send me the reported inhibition at 10 µM for CC1CCC(NC(=O)c2ccc3c(c2)nc(Nc2c(Cl)cccc2Cl)n3C)CC1 (stereo not drawn) when you can.
96

Dear colleague, please send me the reported inhibition at 10 µM for Cn1c(Nc2c(Cl)cccc2Cl)nc2cc(C(=O)NC3CCN(C4CC4)CC3)c(F)cc21 when you can.
77

Dear colleague, please send me the reported inhibition at 10 µM for Cn1c(Nc2c(Cl)cccc2Cl)nc2cc(C(=O)NC3CCOCC3)ccc21 when you can.
68

Dear colleague, please send me the reported inhibition at 10 µM for O=C(Nc1nc(C(F)(F)F)cs1)c1ccc2[nH]c(Nc3c(Cl)cccc3Cl)nc2c1 when you can.
100

Dear colleague, please send me the reported inhibition at 10 µM for CN(C)c1cccc(F)c1Nc1nc2cc(C(=O)Nc3ccc(Br)cc3)ccc2n1C when you can.
94

Dear colleague, please send me the reported inhibition at 10 µM for CCCCOc1cccc(NC(=O)c2ccc3c(c2)nc(Nc2c(Cl)cccc2Cl)n3C)n1 when you can.
100

Dear colleague, please send me the reported inhibition at 10 µM for CNCCn1c(Nc2c(Cl)cccc2Cl)nc2cc(C(=O)Nc3cc(Cl)ccn3)ccc21 [Example 212, (trifluoroacetate)] when you can.
100

Dear colleague, please send me the reported inhibition at 10 µM for CCC1CCC(NC(=O)c2cc3nc(Nc4c(F)cccc4Cl)n(C)c3cc2F)CC1 (stereo not drawn) when you can.
100

Dear colleague, please send me the reported inhibition at 10 µM for COc1cc2nc(Nc3c(Cl)cccc3Cl)[nH]c2cc1C(=O)NCc1ncccc1C when you can.
98

Dear colleague, please send me the reported inhibition at 10 µM for Cn1c(Nc2c(Cl)cccc2Cl)nc2cc(C(=O)NC3CCC4(CC4)C3)ccc21 (stereo not drawn) when you can.
99

Dear colleague, please send me the reported inhibition at 10 µM for Cc1nc(NC(=O)c2cc3nc(Nc4c(Cl)cccc4Cl)[nH]c3cc2F)cc2c1CCCC2 when you can.
100

Dear colleague, please send me the reported inhibition at 10 µM for Cc1cc(NC(=O)c2cc3nc(Nc4c(Cl)cc(F)cc4Cl)[nH]c3cc2OCC(F)(F)F)nc(C(F)(F)F)c1 when you can.
96

Dear colleague, please send me the reported inhibition at 10 µM for C[C@@H]1CCC(NC(=O)c2cc3nc(Nc4c(Cl)cccc4Cl)n(C)c3cc2F)C1 (stereo partly drawn) when you can.
100

Dear colleague, please send me the reported inhibition at 10 µM for O=C(Nc1cc(Cl)cc(Cl)c1)c1ccc2[nH]c(Nc3c(Cl)cccc3Cl)nc2c1 when you can.
97

Dear colleague, please send me the reported inhibition at 10 µM for Cn1c(Nc2c(Cl)cccc2Cl)nc2cc(C(=O)NC3CCC(F)(F)CC3)c(F)cc21 when you can.
100

Dear colleague, please send me the reported inhibition at 10 µM for Cc1cc2[nH]c(Nc3c(Cl)cccc3Cl)nc2cc1C(=O)NC1CCC(C)(C)CC1 when you can.
95

Dear colleague, please send me the reported inhibition at 10 µM for O=C(NCc1ccccc1C(F)(F)F)c1cc(Br)c2[nH]c(Nc3c(Cl)cccc3Cl)nc2c1 when you can.
99
